TARGET OF ASSAY: CerS5 (Homo sapiens (Human))
Sequence (Q8N5B7 whole entry, species assumed): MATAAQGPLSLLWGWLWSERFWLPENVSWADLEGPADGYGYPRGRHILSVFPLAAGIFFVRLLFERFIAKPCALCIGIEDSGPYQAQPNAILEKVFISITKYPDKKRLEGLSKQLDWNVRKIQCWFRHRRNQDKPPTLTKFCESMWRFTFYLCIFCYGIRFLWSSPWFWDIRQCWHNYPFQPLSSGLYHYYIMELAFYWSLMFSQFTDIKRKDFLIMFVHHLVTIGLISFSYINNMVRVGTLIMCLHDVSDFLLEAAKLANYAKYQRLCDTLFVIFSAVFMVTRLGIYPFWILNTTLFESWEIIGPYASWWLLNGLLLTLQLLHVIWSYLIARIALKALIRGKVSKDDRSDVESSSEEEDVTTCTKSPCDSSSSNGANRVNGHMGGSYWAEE
METHOD NOTES: Inhibition of ceramide synthesis (CerS5) measured in vitro; note: test concentration or dose not given here
Format: biochemical
CerS5 activity (% of control) by entry:

Consider the worked cases shown below.
In [3]: df
Out[3]:
                                   compound                 obs_value
0  CCCCC/C=C\C/C=C\CCCCCCCC[C@H](O)[C@@H](N)CO  57.3 ± 12.2 % of control
1                CCCCCCCCCC/C=C/CCC(N)(N)CN  68.2 ± 10.4 % of control
2     CCCCCCCCCCCCCCC[C@H](O)[C@H](CN)N(C)C  90.2 ± 16.4 % of control
3  CCCCCCCCCC/C=C/CCC(N)(O)CO (centres unmarked)  71.5 ± 19.0 % of control

response.value for `CCCCCCCC/C=C\CCCCCCCC[C@@H](O)[C@H](N)CO` (field: CerS5 activity (% of control)) = 88.5 ± 10.1 % of control

Where do the numbers come from? From patent US11471430B2.
